The reported measurements were obtained from paper PMC4336329.

Biological target: human ether-à-go-go-related gene (hERG) potassium channel (human, UniProt Q12809);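 further: peak tail current of the secondary pulse compared with the same well before compound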
Sequence (Q12809 whole entry, looked up): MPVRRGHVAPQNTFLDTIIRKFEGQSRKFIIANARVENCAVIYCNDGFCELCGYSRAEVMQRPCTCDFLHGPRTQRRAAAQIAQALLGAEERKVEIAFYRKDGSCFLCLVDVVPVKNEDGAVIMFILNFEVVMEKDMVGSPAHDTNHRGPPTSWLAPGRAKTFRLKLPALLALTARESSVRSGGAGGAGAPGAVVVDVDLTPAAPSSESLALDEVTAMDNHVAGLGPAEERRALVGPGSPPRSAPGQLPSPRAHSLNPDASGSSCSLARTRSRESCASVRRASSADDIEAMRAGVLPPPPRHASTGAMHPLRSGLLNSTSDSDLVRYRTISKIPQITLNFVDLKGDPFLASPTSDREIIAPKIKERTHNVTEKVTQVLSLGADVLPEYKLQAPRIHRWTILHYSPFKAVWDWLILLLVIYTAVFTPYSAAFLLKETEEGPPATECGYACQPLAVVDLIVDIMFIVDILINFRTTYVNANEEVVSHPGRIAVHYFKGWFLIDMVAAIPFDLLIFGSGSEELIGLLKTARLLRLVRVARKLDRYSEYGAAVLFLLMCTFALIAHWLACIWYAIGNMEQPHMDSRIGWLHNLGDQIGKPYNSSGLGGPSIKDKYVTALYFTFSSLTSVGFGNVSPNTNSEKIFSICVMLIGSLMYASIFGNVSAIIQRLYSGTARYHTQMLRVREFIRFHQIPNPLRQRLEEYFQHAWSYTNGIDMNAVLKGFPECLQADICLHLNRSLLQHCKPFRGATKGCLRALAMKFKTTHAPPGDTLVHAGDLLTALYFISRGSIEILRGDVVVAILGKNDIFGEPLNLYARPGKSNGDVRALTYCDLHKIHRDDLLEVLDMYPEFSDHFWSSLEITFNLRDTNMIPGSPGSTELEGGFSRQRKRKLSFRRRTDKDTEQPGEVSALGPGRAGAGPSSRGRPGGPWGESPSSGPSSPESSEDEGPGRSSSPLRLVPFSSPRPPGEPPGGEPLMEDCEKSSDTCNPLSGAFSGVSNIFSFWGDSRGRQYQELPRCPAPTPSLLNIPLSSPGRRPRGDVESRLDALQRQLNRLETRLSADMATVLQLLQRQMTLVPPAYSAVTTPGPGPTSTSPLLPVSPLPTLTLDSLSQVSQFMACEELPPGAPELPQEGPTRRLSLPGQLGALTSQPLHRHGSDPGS
Assay: primary screen, population patch clamp on CHO cells stably expressing hERG; higher = less effect of the substance
Description: Briefly, Chinese hamster ovary (CHO) cells stably expressing the hERG channel were dislodged from tissue culture flasks and dispensed into PPC plates. […] During the recording, background leak currents were estimated by a 100 ms step to -80 mV from an initial holding potential of -70 mV and subtracted from the subsequent current measurement. The campaign was conducted in two phases using slight differences in recording protocol. […]
Screen size: about 310,000 compounds; about 14,000 (4.5%) showed an effect of 50% or more. Effects have a minus sign here. Many of the other results were omitted from the sample, so strong results are more common in it than they were.
Each entry below lists one item and its recorded hERG current change (%, negative = inhibition) at 10uM value.
observation.type: hERG current change (%, negative = inhibition) at 10uM (%)

>>> assay_value("O=C(c1ccc([N+](=O)[O-])o1)N1CCN(c2nc3c(F)cc(F)cc3s2)CC1")
-54.7
>>> assay_value("Cc1ccc(C(=O)NCC(=O)OCC(=O)c2c(N)n(C)c(=O)n(C)c2=O)s1")
9.14
>>> assay_value("Cc1cc2nc(C)n(CCCN)c2cc1C.Cl")
-0.0557
>>> assay_value("COc1ccc(-c2csc3nc(C)nc(N4CCCCC4)c23)cc1OC")
-7.85
>>> assay_value("CC(Oc1cccc(Cl)c1)C(=O)Nc1ccc(S(=O)(=O)NC2=NCCCCC2)cc1 (stereo not drawn)")
-22.5
>>> assay_value("O=[N+]([O-])c1cc(CN2CCN(c3ccccc3)CC2)c(O)c2ncccc12")
-7.8
>>> assay_value("N#Cc1ccccc1CSc1nc(N2CCCCC2)nc(N2CCCCC2)n1")
5.79
>>> assay_value("O=C(c1ccc([N+](=O)[O-])o1)N1CCN(c2nc3ccc(F)cc3s2)CC1")
-23.7
>>> assay_value("CC(C)Cn1c(N)c(C(=O)COC(=O)Cc2cccs2)c(=O)n(C)c1=O")
-51.7
>>> assay_value("Cc1cc(C)c2nc(N3CCN(C(=O)c4cccs4)CC3)sc2c1")
0.575
>>> assay_value("Cc1ccc2sc(N3CCN(C(=O)c4ccc([N+](=O)[O-])o4)CC3)nc2c1C")
3.89
>>> assay_value("CC(C)Cn1c(N)c(C(=O)COC(=O)COc2cccc(C(F)(F)F)c2)c(=O)n(C)c1=O")
-50.9
>>> assay_value("CC(C)Cn1c(N)c(C(=O)COC(=O)Cc2cccc(C(F)(F)F)c2)c(=O)n(C)c1=O")
-54.5
>>> assay_value("CC(C)Cn1c(N)c(C(=O)COC(=O)/C=C/c2cccs2)c(=O)n(C)c1=O")
-49.9
>>> assay_value("COc1ccc(C2=NC(=O)/C(=C\\c3cc(OC)c(OC)c(OC)c3)O2)cc1")
8.26
